Target: PAR4 (Homo sapiens)
Construct: expressed in transfected cells; host or cells: HEK293 PAR4 Clone 1.2A (BMS Arctic ID 383940)
Sequence (Q96RI0 18-385): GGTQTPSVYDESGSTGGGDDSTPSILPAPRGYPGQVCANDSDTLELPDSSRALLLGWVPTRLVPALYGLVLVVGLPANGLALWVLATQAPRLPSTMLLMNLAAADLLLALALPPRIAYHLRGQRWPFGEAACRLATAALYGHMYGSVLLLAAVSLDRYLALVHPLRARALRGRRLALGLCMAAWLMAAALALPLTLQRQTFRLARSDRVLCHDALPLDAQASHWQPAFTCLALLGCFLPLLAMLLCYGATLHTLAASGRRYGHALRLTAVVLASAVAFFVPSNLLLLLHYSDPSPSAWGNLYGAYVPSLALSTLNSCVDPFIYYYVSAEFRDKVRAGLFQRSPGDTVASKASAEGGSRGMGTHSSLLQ
Assay: PAR4 FLIPR assay (antagonism of agonist peptide-induced calcium mobilization)
Format: cell-based
endpoint name: pIC50
// pIC50: -log10(molar conc.)

COc1cnc2c(-c3nc4ccc5c(c4s3)CC(CNC(=O)OCc3ccccc3)O5)cc(C)cc2n1 (stereo not shown) [Example 193] : 8.28
COc1cnc2c(-c3nc4c(C(O)C(C)(C)C)cc5c(c4s3)OCCO5)cc(Cl)cc2c1 (single isomer, unassigned) [Example 274] : 8.30
COc1cnc2c(-c3nc4cc(F)c5c(c4s3)[C@H](C)[C@@H](CNC(=O)OCC(C)C)O5)cc(C)cc2n1 [Example 256] : 9.15
COc1cnc2c(-c3nc4cc(F)c5c(c4s3)C[C@@](C)(COC(=O)Nc3cccc(C#N)c3)O5)cc(C)cc2n1 [Example 176] : 8.21
COc1cnc2c(-c3nc4cc(F)c5c(c4s3)C[C@H](COC(=O)Nc3cnc(C)nc3)O5)cc(Cl)cc2c1 [Example 267] : 8.74

Task item: Query pIC50 on PAR4 (Homo sapiens) for COc1cnc2c(-c3nc4ccc5c(c4s3)C[C@](C)(COC(=O)Nc3cccc(C#N)c3)O5)cc(C)cc2n1 [Example 196]
Reply: 8.80

Task item: Now this one: COc1cnc2c(-c3nc4c(Cl)cc5c(c4s3)OC[C@H](COC(=O)Nc3cnc(Cl)nc3)O5)cc(C)cc2n1 [Example 58]
Reply: 8.06

###

target: PAR4 (Homo sapiens, UniProt Q96RI0); construct: expressed in transfected cells; host or cells: HEK293 PAR4 Clone 1.2A (BMS Arctic ID 383940); assay: PAR4 FLIPR assay (antagonism of agonist peptide-induced calcium mobilization); format: cell-based
endpoint name: IC50 (nM)
A number alone suffices; assume nM.

Illustrative cases are given below, each with its answer.
COc1cnc2c(-c3nc4cc(F)c5c(c4s3)C[C@H](COC(=O)Nc3ccc(F)nc3)O5)cc(C)cc2n1 : 5.7
COc1cnc2c(-c3nc4cc(F)c5c(c4s3)C[C@](C)(COC(=O)Nc3cnc(OCCO)nc3)O5)cc(C)cc2n1 : 0.9
COc1cnc2c(-c3nc4cc(F)c5c(c4s3)CC(C)(CO)O5)cc(C)cc2n1 (stereo not shown) : 3.1
COc1cc(NC(=O)OC[C@H]2COc3c(cc(Cl)c4nc(-c5cc(C)cc6nc(OC)cnc56)sc34)O2)ccn1 : 1.7
COc1cnc2c(-c3nc4c(F)cc5c(c4s3)OC[C@H](COC(=O)Nc3ccnc(C)c3)O5)cc(C)cc2n1 : 4.9
COc1cnc2c(-c3nc4c(C)cc5c(c4s3)OC[C@H](COC(=O)Nc3ccc(C)nc3)O5)cc(C#N)cc2n1 : 1.1

Moving on to the next molecule.
Task item: Record request: IC50 value, item `COc1cnc2c(-c3nc4c(Cl)cc5c(c4s3)OC[C@H](COC(=O)Nc3cncc(Cl)c3)O5)cc(C)cc2n1`
Reply: 25

###

Target: PAR4 (Homo sapiens)
Construct: expressed in transfected cells; host or cells: HEK293 PAR4 Clone 1.2A (BMS Arctic ID 383940)
Sequence (Q96RI0 18-385): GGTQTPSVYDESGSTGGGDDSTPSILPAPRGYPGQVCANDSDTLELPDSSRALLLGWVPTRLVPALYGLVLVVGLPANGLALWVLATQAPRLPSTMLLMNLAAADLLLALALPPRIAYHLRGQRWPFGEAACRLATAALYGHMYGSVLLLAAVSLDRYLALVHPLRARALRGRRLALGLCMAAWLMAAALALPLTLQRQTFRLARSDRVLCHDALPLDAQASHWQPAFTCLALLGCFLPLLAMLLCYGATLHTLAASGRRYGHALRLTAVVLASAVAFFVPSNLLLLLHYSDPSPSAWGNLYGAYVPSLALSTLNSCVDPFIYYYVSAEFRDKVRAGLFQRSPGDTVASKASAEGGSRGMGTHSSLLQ
Assay: PAR4 FLIPR assay (antagonism of agonist peptide-induced calcium mobilization)
Assay type: cell-based
endpoint name: pIC50
// pIC50: -log10(molar conc.)

COc1cnc2c(-c3nc4c(C)cc5c(c4s3)OCC(COC(=O)Nc3ccc(C)nc3)O5)cc(C)cc2n1 (centres unmarked) [Example 120] : 9.05
COC(=O)NC[C@@H]1Cc2c(ccc3nc(-c4cc(C)cc5nc(OC)cnc45)sc23)O1 [Example 226] : 8.85
C=Cc1cc(-c2nc3c(C)cc4c(c3s2)OCC(COC(=O)Nc2cccnc2)O4)c2ncc(OC)nc2c1 (centres unmarked) [Example 89] : 7.70
COc1cnc2c(-c3nc4ccc5c(c4s3)OC[C@H](COC(=O)Nc3cccnc3)O5)cc(C)cc2n1 [Example 108] : 8.74
COc1cnc2c(-c3nc4c(C)cc5c(c4s3)OCC(COC(=O)Nc3ccc(NC(C)=O)nc3)O5)cc(C)cc2n1 (centres unmarked) [Example 140] : 6.64

Moving on to the next compound.
Task item: Record request: pIC50 value, item COc1cnc2c(-c3nc4c(C)cc5c(c4s3)OCC(COC(=O)Nc3ccc4ocnc4c3)O5)cc(C)cc2n1 (centres unmarked) [Example 82]
Reply: 7.26

###

target: PAR4 (Homo sapiens); construct: expressed in transfected cells; host or cells: HEK293 PAR4 Clone 1.2A (BMS Arctic ID 383940); experiment: PAR4 FLIPR assay (antagonism of agonist peptide-induced calcium mobilization); type: cell-based
endpoint name: IC50 (nM)
A number alone suffices; assume nM.

Illustrative cases are given below, each with its answer.
COc1cnc2c(-c3nc4cc(F)c5c(c4s3)C[C@H](COC(=O)Nc3cnc(OCCO)nc3)O5)cc(C)cc2n1 [Example 173] : 1.3
COc1ccc(NC(=O)OC[C@H]2COc3c(ccc4oc(-c5cc(C)cc6nc(OC)cnc56)cc34)O2)cn1 [Example 13] : 1.2
COc1cnc2c(-c3nc4c(C)cc5c(c4s3)OCC(COC(=O)Nc3ccc(N4CCCC4)nc3)O5)cc(C)cc2n1 (stereo not shown) [Example 137] : 6.1

Task item: Query IC50 on PAR4 (Homo sapiens) for COc1cnc2c(-c3nc4cc(F)c5c(c4s3)[C@@H](C)[C@H](CO)O5)cc(C)cc2n1 [Example 239]
Reply: 49

Task item: Now this one: CCOc1cnc2c(-c3nc4ccc5c(c4s3)OC[C@H](COC(=O)Nc3cnc(C)nc3)O5)cc(Cl)cc2c1 [Example 271]
Reply: 4.9

Task item: Now this one: COc1cnc2c(-c3nc4c(Cl)cc5c(c4s3)OC[C@H](COC(=O)Nc3cncc(F)c3)O5)cc(C)cc2n1 [Example 28]
Reply: 480

Task item: Now this one: COc1cnc2c(-c3nc4c(C)cc5c(c4s3)OCC(COC(=O)Nc3cnc4c(c3)CN(C(=O)OC(C)(C)C)CC4)O5)cc(C)cc2n1 (stereo not shown) [Example 139]
Reply: 2.1

Task item: Now this one: COc1cnc2c(-c3nc4c(C)cc5c(c4s3)OC[C@H](COC(=O)Nc3ccc(C)nc3)O5)cc(CO)cc2n1 [Example 100]
Reply: 1.8

###

A collection of compounds and their measured IC50
Biological target: PAR4 (Homo sapiens)
Construct: expressed in transfected cells; host or cells: HEK293 PAR4 Clone 1.2A (BMS Arctic ID 383940)
Sequence (Q96RI0 18-385): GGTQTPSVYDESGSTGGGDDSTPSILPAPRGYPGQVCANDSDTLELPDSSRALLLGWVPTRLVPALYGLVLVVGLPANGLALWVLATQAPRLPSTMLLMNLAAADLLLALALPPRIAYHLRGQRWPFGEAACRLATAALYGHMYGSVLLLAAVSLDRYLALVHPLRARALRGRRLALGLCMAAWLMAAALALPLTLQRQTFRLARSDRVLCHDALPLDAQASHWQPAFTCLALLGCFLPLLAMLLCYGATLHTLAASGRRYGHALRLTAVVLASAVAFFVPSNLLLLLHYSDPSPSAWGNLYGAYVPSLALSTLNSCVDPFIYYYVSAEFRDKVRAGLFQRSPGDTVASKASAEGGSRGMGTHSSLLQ
Assay: PAR4 FLIPR assay (antagonism of agonist peptide-induced calcium mobilization)
Assay type: cell-based
A number alone suffices; assume nM.

COc1cnc2c(-c3nc4ccc5c(c4s3)OC[C@H](COC(=O)Nc3cnc(C)nc3)O5)cc(F)cc2c1 : 9
COc1cnc2c(-c3nc4cc(F)c5c(c4s3)C[C@@](C)(COC(=O)Nc3cccnc3)O5)cc(C)cc2n1 : 19
COC(=O)[C@@H]1Cc2c(ccc3nc(-c4cc(C)cc5nc(OC)cnc45)sc23)O1 : 28

Task item: Record request: IC50 value, item `COc1cnc2c(-c3nc4c(C)cc5c(c4s3)OC[C@H](COC(=O)Nc3cccnc3)O5)cc(C#N)cc2n1`
Reply: 20

Task item: Now this one: `COc1cnc2c(-c3nc4cc(F)c5c(c4s3)C[C@H](COC(=O)Nc3cncnc3)O5)cc(C)cc2n1`
Reply: 6.9

Task item: Now this one: `COc1cnc2c(-c3nc4ccc5c(c4s3)C[C@@H](CNC(=O)OCc3ccccc3)O5)cc(C)cc2n1`
Reply: 0.6

Task item: Now this one: `COc1cnc2c(-c3cc4c5c(cc(Cl)c4o3)O[C@@H](COC(=O)Nc3cccnc3)CO5)cc(C)cc2n1`
Reply: 8.5

Task item: Now this one: COc1cnc2c(-c3nc4c(C)cc5c(c4s3)OCC(COC(=O)Nc3ccc(C(F)(F)F)nc3)O5)cc(C)cc2n1 (centres unmarked)
Reply: 2

These data points were gathered from patent US11932658B2.
